# assayName: Fraction unbound in cynomolgus monkey plasma incubated for 6 hrs by HPLC-MS/MS analysis
# Format: ADME, cell-free, Macaca fascicularis
measuredQuantity: fraction unbound at 6 h

-- ask Recorded fraction unbound at 6 h for Fc1cc2nc(-c3cncnc3C(F)(F)F)n(C3CC3)c2cc1F , please?
-- reply 0.16

----------
# assayName: AUC (0 to 24 hrs) in cynomolgus monkey at 1 mg/kg, po measured after 24 or 72 hrs
# Type: ADME, organism-based, Macaca fascicularis
# Design: time < 24 hr, dose 1 mg/kg, route oral
# conditionsUsed: in vivo
measuredQuantity: AUC(0-t) at 24 h
Remember to follow the number with its unit.

-- ask Recorded AUC(0-t) at 24 h of Cc1ncncc1-c1nc2cc(F)c(F)cc2n1C1CC1 , please.
-- reply 3 µM·h

-- ask What do you have for N#Cc1ccc2nc(-c3cncnc3C(F)(F)F)n(C3CC3)c2n1 ?
-- reply 10.1 µM·h

-- ask How about this compound: Fc1cc2nc(-c3cncnc3C(F)F)n(C3CC3)c2cc1F
-- reply 8.8 µM·h

-- ask What would you report for N#Cc1ccc2nc(-c3cncnc3C(F)F)n(C3CC3)c2n1 ?
-- reply 32.2 µM·h

-- ask Try this compound too: Fc1cc2nc(-c3cncnc3C(F)(F)F)n(C3CC3)c2cc1F
-- reply 7.8 µM·h

-- ask Queued: N#Cc1ccc2nc(-c3cncnc3C(F)F)n(C3CC3)c2c1
-- reply 8.3 µM·h

----------
# Species: Homo sapiens
# assayName: Selectivity index, ratio of IC50 for human recombinant CYP11B1 to IC50 for human recombinant CYP11B2
measuredQuantity: Ratio IC50
Lab note: write the figure by itself, no unit.

-- ask Query (compound): CC(C)c1ncncc1-c1nc2cc(F)c(F)cc2n1C1CC1 ; field requested: Ratio IC50
-- reply 381

-- ask Another compound to look at: Fc1ccc2nc(-c3cncnc3)n(C3CC3)c2c1
-- reply 136

-- ask What do you get for N#Cc1ncncc1-c1nc2cc(F)c(F)cc2n1C1CC1 ?
-- reply 383

-- ask Input CC(F)(F)c1ncncc1-c1nc2cc(F)c(F)cc2n1C1CC1
-- reply 114

-- ask Please do the same for N#Cc1ccc2nc(-c3cncnc3C(F)(F)F)n(C3CC3)c2n1 as well.
-- reply 200

-- ask Same again, this time with CN(C)c1ncncc1-c1nc2cc(F)c(F)cc2n1C1CC1
-- reply 159

-- ask Try the compound N#Cc1ccc2nc(-c3cncnc3C(F)F)n(C3CC3)c2c1
-- reply 226

-- ask Next entry: Fc1cc2nc(-c3cncnc3NCCC(F)(F)F)n(C3CC3)c2cc1F
-- reply 126

-- ask Request: CCc1ncncc1-c1nc2cc(F)c(F)cc2n1C1CC1
-- reply 416

----------
# targetEntity: Aromatase (Homo sapiens)
# Sequence (P11511 whole entry): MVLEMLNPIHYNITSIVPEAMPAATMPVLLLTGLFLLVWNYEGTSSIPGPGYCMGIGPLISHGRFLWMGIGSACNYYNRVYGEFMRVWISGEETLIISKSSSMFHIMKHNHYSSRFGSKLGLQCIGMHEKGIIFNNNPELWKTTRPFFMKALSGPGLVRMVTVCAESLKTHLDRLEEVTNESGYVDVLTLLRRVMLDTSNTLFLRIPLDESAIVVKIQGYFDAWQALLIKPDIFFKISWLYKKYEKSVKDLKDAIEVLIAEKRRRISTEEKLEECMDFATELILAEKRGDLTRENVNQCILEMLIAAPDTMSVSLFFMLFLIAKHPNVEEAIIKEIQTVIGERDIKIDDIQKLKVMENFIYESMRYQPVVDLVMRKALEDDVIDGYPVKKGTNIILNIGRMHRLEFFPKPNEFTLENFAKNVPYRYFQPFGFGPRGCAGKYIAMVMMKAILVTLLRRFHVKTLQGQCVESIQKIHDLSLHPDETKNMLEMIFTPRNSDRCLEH
measuredQuantity: pIC50
Here pIC50 is given on a logarithmic scale as minus log10 of the concentration in mol/L.

-- ask State the recorded pIC50 for this entry: Fc1cc2nc(-c3cncnc3C(F)(F)F)n(C3CC3)c2cc1F
-- reply 5.19

----------
Field: half-life. Provide a value for each of the molecules that follow.
# assayName: Half life in cynomolgus monkey at 1 mg/kg, po measured after 24 or 72 hrs
# Format: ADME, organism-based, Macaca fascicularis
# conditionsUsed: in vivo
The figure you give is taken to be in h; do not add the unit.

-- ask Param item = Fc1cc2nc(-c3cncnc3C(F)F)n(C3CC3)c2cc1F ; retrieve measured half-life.
-- reply 15.3

-- ask Further, for N#Cc1ccc2nc(-c3cncnc3C(F)F)n(C3CC3)c2n1 ?
-- reply 7.5

-- ask Follow-up item: Fc1cc2nc(-c3cncnc3C(F)(F)F)n(C3CC3)c2cc1F
-- reply 30

-- ask N#Cc1ccc2nc(-c3cncnc3C(F)F)n(C3CC3)c2c1 , same question.
-- reply 5.4

-- ask Field entry: N#Cc1ccc2nc(-c3cncnc3C(F)(F)F)n(C3CC3)c2n1
-- reply 5.3

-- ask Cool, now Cc1ncncc1-c1nc2cc(F)c(F)cc2n1C1CC1
-- reply 4.2

----------
# Species on record: Homo sapiens
# assayName: Selectivity index, ratio of IC50 for human recombinant CYP11B1 to IC50 for human recombinant CYP11B2
measuredQuantity: Ratio IC50
In your answer, state the number alone without any accompanying words.

-- ask So what's the measured Ratio IC50 for this one? Fc1cc2nc(-c3cncnc3C(F)(F)F)n(C3CC3)c2cc1F
-- reply 190

-- ask Would you kindly repeat that for N#Cc1ccc2nc(-c3cncnc3C(F)(F)F)n(C3CC3)c2c1 ?
-- reply 261

-- ask Thanks! And Fc1cc2nc(-c3cncnc3C(F)F)n(C3CC3)c2cc1F ?
-- reply 240

-- ask Would you mind doing Cc1ncncc1-c1nc2cc(F)c(F)cc2n1C1CC1 as well?
-- reply 244

-- ask Try the molecule Fc1ccc2nc(-c3cncs3)n(C3CC3)c2c1
-- reply 73

-- ask Next molecule: N#Cc1ccc2nc(-c3cncnc3C(F)F)n(C3CC3)c2n1
-- reply 135

-- ask Then what about the molecule Fc1ccc2nc(-c3cn[nH]c3)n(C3CC3)c2c1 ?
-- reply 2

-- ask Try Fc1cc2nc(-c3cncnc3)n(C3CC3)c2cc1F next.
-- reply 103

-- ask Another molecule to look at: Fc1ccc2nc(-n3ccnn3)n(C3CC3)c2c1
-- reply 8.5

----------
Provide the recorded pIC50 for the entries that follow.
# targetEntity: Cytochrome P450 11B1, mitochondrial (Homo sapiens)
# Sequence (P15538 whole entry): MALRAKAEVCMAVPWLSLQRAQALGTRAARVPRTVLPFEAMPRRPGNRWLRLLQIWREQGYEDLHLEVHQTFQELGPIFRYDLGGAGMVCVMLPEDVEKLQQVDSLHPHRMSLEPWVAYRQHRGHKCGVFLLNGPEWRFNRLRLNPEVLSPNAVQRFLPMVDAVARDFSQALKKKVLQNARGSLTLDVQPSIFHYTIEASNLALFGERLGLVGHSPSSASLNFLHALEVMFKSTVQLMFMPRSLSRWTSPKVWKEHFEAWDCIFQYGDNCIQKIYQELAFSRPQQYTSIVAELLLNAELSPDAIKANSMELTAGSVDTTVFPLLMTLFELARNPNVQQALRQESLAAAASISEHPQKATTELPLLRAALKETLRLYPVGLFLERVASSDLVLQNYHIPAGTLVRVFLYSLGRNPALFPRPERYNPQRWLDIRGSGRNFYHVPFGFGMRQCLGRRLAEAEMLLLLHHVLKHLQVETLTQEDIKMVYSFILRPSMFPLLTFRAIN
# assayName: Inhibition of human recombinant CYP11B1 using deoxycortisol as substrate incubated for 60 mins by cell-based HPLC analysis
Keep in mind that pIC50 stands for -log10 of concentration in molar terms.

-- ask pIC50 for N#Cc1ccc2nc(-c3cncnc3C(F)(F)F)n(C3CC3)c2n1 ?
-- reply 5.32

-- ask Likewise for Fc1ccc2nc(-n3ccnn3)n(C3CC3)c2c1 ?
-- reply 5.04

-- ask CCc1ncncc1-c1nc2cc(F)c(F)cc2n1C1CC1 , same question.
-- reply 5.48

-- ask Query Fc1cc2nc(-c3cncnc3C(F)(F)F)n(C3CC3)c2cc1F next
-- reply 5.32

-- ask # iterate: CNc1ncncc1-c1nc2cc(F)c(F)cc2n1C1CC1
-- reply 6.41

-- ask Same again, this time with N#Cc1ccc2nc(-c3cncnc3C(F)F)n(C3CC3)c2n1
-- reply 5.41

-- ask Next entry: Fc1cc2nc(-c3cncnc3)n(C3CC3)c2cc1F
-- reply 5.64

-- ask Queued: CN(C)c1ncncc1-c1nc2cc(F)c(F)cc2n1C1CC1
-- reply 5.33

-- ask How about this compound: CC(C)c1ncncc1-c1nc2cc(F)c(F)cc2n1C1CC1
-- reply 5.72

-- ask N#Cc1ccc2nc(-c3cncnc3C(F)F)n(C3CC3)c2c1 ?
-- reply 5.69

-- ask Also Fc1ccc2nc(-c3cn[nH]c3)n(C3CC3)c2c1 , if possible.
-- reply 5.78

-- ask Moving on to the next compound: CC(F)(F)c1ncncc1-c1nc2cc(F)c(F)cc2n1C1CC1
-- reply 5.24

-- ask Cool, now Fc1cc2nc(-c3cncnc3C(F)F)n(C3CC3)c2cc1F
-- reply 5.36

-- ask Now this one: Fc1cc2nc(-c3cncnc3NCCC(F)(F)F)n(C3CC3)c2cc1F
-- reply 6.42

-- ask Another: N#Cc1ccc2nc(-c3cncnc3C(F)(F)F)n(C3CC3)c2c1
-- reply 5.38

-- ask Next: N#Cc1ncncc1-c1nc2cc(F)c(F)cc2n1C1CC1
-- reply 5.30

-- ask For Fc1ccc2nc(-c3cncs3)n(C3CC3)c2c1 then?
-- reply 5.34

----------
# targetEntity: Cytochrome P450 11B2, mitochondrial (Homo sapiens)
# Sequence (P19099 whole entry): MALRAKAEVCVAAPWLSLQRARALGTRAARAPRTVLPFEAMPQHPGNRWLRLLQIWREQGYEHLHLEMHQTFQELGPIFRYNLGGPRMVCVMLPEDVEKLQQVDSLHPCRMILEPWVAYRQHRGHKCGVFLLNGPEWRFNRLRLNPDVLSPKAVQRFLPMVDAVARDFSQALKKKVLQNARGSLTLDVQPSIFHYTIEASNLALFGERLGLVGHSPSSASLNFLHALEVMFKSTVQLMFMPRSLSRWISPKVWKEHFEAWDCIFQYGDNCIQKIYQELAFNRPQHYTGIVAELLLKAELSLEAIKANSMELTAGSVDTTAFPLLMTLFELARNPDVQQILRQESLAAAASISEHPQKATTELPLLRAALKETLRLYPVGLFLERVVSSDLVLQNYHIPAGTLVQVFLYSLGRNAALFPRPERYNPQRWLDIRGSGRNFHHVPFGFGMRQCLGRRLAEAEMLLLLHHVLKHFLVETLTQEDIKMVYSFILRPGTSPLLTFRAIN
# assayName: Inhibition of human recombinant CYP11B2 using deoxycorticosterone as substrate incubated for 90 mins by cell-based HPLC analysis
pIC50: −log10 of the molar value.
// n strictly below 8 in pIC50; y otherwise

-- ask Answer whether pIC50 of N#Cc1ccc2nc(-c3cncnc3C(F)F)n(C3CC3)c2n1 is greater than or equal to 8.
-- reply n

-- ask CC(C)c1ncncc1-c1nc2cc(F)c(F)cc2n1C1CC1 , same question.
-- reply y

-- ask Queued: Fc1ccc2nc(-c3cn[nH]c3)n(C3CC3)c2c1
-- reply n

-- ask // next record Fc1cc2nc(-c3cncnc3C3CC3)n(C3CC3)c2cc1F
-- reply n

-- ask Then what about the compound Fc1ccc2nc(-c3cccnn3)n(C3CC3)c2c1 ?
-- reply n

-- ask Proceed to CN(C)c1ncncc1-c1nc2cc(F)c(F)cc2n1C1CC1
-- reply n

-- ask And the next one, Fc1cc2nc(-c3cncnc3C(F)F)n(C3CC3)c2cc1F ?
-- reply n

-- ask Also check Fc1cc2nc(-c3cncnc3NCCC(F)(F)F)n(C3CC3)c2cc1F
-- reply y

-- ask Now consider Fc1ccc2nc(-n3ccnn3)n(C3CC3)c2c1 and answer again.
-- reply n

-- ask Please give the result for Fc1ccc2nc(-c3cnco3)n(C3CC3)c2c1 too.
-- reply n

-- ask And the next one, Fc1ccc2nc(-c3cnccn3)n(C3CC3)c2c1 ?
-- reply n

-- ask Proceed to Fc1ccc2nc(-c3cncs3)n(C3CC3)c2c1
-- reply n

-- ask // next record Fc1cc2nc(-c3cncnc3)n(C3CC3)c2cc1F
-- reply n

-- ask Follow-up item: CC(F)(F)c1ncncc1-c1nc2cc(F)c(F)cc2n1C1CC1
-- reply n

-- ask Cool, now CNc1ncncc1-c1nc2cc(F)c(F)cc2n1C1CC1
-- reply y

-- ask Try this compound too: N#Cc1ccc2nc(-c3cncnc3C(F)(F)F)n(C3CC3)c2n1
-- reply n

-- ask Param item: Fc1cc2nc(-c3cncnc3C(F)(F)F)n(C3CC3)c2cc1F
-- reply n
